Tested on: MCF7 breast
test description: NCI-60 one-dose screen, 48 h (100 = growth as untreated, 0 = no growth, -100 = all killed)
protocol conditions: 10 µM unless noted
This is part of a sample that, as a whole, favours compounds with a hit. Of some 83,000 tested, about 20% had one in any assay.
I'd be grateful if you could share measured growth for these entries.
Give a bare numeral; the unit % is implied.

Let me check: `O=C1COCCN1c1ccc(NCc2cn(Cc3cccc4ccccc34)c3ccccc23)cc1` , system MCF7 breast, measured growth is 63.4

Let me check: `COc1cc(/C=C/C(=O)/C=C/c2ccc(-n3ccnc3C)cc2)ccc1O` , system MCF7 breast, measured growth is 4.86

Let me check: `COc1cc2c(c(OC)c1OC)-c1cc(I)c(O)cc1[C@@H](NC(C)=O)CC2` , system MCF7 breast, measured growth is 12.5

====

Test system: COLO 205 colon
test description: NCI-60 one-dose screen, 48 h (100 = growth as untreated, 0 = no growth, -100 = all killed)
protocol conditions: 10 µM unless noted
The panel holds about 83,000 compounds, 20% with a hit somewhere; the sample as a whole holds those more often.
measure: growth (%)
Give a bare numeral; the unit % is implied.

Lookup result for `COc1ccc(/C=C/C=C\C(=O)c2ccc(-n3ccnc3)cc2)cc1` ; measured growth: 101

Lookup result for `O=C(Nc1cccc2ccccc12)c1cc2ccccc2cc1O` ; measured growth: 112

Lookup result for `O=C(NCc1ccccc1)C(Cl)Cl` ; measured growth: 116

Lookup result for `CCOC(=O)c1c[nH]c2cc(OCC3CC3)c(OCC3CC3)cc2c1=O` ; measured growth: 113

Lookup result for `CC(=O)n1cc(C=O)c2ccccc21` ; measured growth: 104

Lookup result for `CC1(C)C(=NO)C(C)(C)C1=NO` ; measured growth: 116

Lookup result for CCCCCC1CCCCN1C(=O)OCCCC (configuration not stated) ; measured growth: 111

====

System: HCT-116 colon
test description: NCI-60 one-dose screen, 48 h
protocol conditions: 10 µM unless noted
The panel holds about 83,000 compounds, 20% with a hit somewhere; the sample as a whole holds those more often. Active and inactive are the calls of the source. The calls were made as follows: active = growth percent below 10; inactive = the rest.
Result category, one only: 1 = active, -1 = inactive

Q) What did this assay record as the result for `O=C(CSc1nc2ccc([N+](=O)[O-])cc2[nH]1)Nc1cccc(Cl)c1` ?
A) -1

Q) What did this assay record as the result for `CCN(CC)c1cc(N)c(Cc2c(N)cc(N(CC)CC)cc2Cl)c(Cl)c1` ?
A) -1

Q) What did this assay record as the result for `O=C1/C(=C/c2ccc(OCc3ccccc3)cc2)Oc2cc(OCCN3CCCCC3)ccc21` ?
A) -1

Q) What did this assay record as the result for CC1Cc2c(Cl)ncnc2N(C)c2ccc(Cl)cc21 (centres undefined) ?
A) 1

Q) What did this assay record as the result for `Cc1ccc(S(=O)(=O)n2cc(C(=O)C(=O)N3CCCCC3)c3ccccc32)cc1` ?
A) -1

Q) What did this assay record as the result for `O=C(CSc1nccc(Nc2ccc(S(=O)(=O)Nc3ccccn3)cc2)n1)c1ccc(Cl)cc1` ?
A) -1

Q) What did this assay record as the result for CC1Cc2c(Cl)ncnc2N(C)c2ccccc21 (centres undefined) ?
A) -1

Q) What did this assay record as the result for `C=C(C)[C@@H]1CC[C@]2(C)[C@H](CC[C@@H]3[C@@H]([C@@](C)(O)CCC=C(C)C)CC[C@]32C)[C@@]1(C)CCC(=O)O` ?
A) 1

Q) What did this assay record as the result for `Nc1nc(SCc2cccc([N+](=O)[O-])c2)c2[nH]cnc2n1` ?
A) -1

Q) What did this assay record as the result for `CC1(C)C(=O)/C(=C\c2ccco2)C[C@]2(C)[C@H]3CC=C4[C@@H]5C[C@](C)(C(=O)O)CC[C@]5(C)CC[C@@]4(C)[C@]3(C)CC[C@@H]12` ?
A) 1

Q) What did this assay record as the result for `COc1cccc(-c2[nH]c(=S)ncc2C(=O)c2ccccc2)c1` ?
A) -1

Q) What did this assay record as the result for `COC(=O)c1cc(O)c2c(c1C(=O)OC)C[C@H]1[C@@H]3CC=C4C[C@@H](O)CC[C@]4(C)[C@H]3CC[C@]21C` ?
A) -1

Q) What did this assay record as the result for `O=C1C(Cl)=C(Nc2ccc3cn[nH]c3c2)C(=O)c2ccccc21` ?
A) 1

Q) What did this assay record as the result for `O=C(Nc1ccc(Cl)c(C(F)(F)F)c1)Nc1ccc(-c2cccnc2)cc1N1CCC(CO)CC1` ?
A) -1

Q) What did this assay record as the result for `O=C(Nc1cc(F)cc2cccnc12)c1cnc(N2CCNCC2)cn1` ?
A) -1

Q) What did this assay record as the result for `C[C@@H]1C[C@H]2C(=O)O[C@@H](C)[C@H](NC(=O)[C@H](Cc3cc(F)cc(F)c3)NC(=O)Nc3ccc(Cl)cc3F)C(=O)N3C[C@H](O)C[C@H]3C(=O)N3CCN(C)C[C@H]3C(=O)N[C@@H](C)C(=O)N2C1` ?
A) 1

Q) What did this assay record as the result for `COc1ccc(-c2c(C)nn3c(NCCN4CCOCC4)cc(C)nc23)cc1OC` ?
A) -1

Q) What did this assay record as the result for `Nc1cc(Cl)cc2cccnc12` ?
A) -1

Q) What did this assay record as the result for `CCNc1cc2c(cc1Br)-c1ccccc1C2=O` ?
A) -1

====

I'd be grateful if you could share measured growth for these entries.
Tested on: HOP-62 NSCLC
test description: NCI-60 one-dose screen, 48 h (100 = growth as untreated, 0 = no growth, -100 = all killed)
protocol conditions: 10 µM unless noted
About 83,000 compounds went through this panel and 20% of them were active in at least one assay; those are over-represented in the sample as a whole. Activity calls are given as the source filed them. Rule for the calls: active = growth percent below 10; inactive = the rest.

Let me check: `C#C[C@]1(O)CC[C@H]2[C@@H]3CC=C4c5nc(Nc6ccccn6)sc5CC[C@]4(C)[C@H]3CC[C@@]21C` , system HOP-62 NSCLC, measured growth is -10.4% (active)

Let me check: `C#C[C@]1(O)CC[C@H]2[C@@H]3CC=C4c5nc(Nc6ccccc6[N+](=O)[O-])sc5CC[C@]4(C)[C@H]3CC[C@@]21C` , system HOP-62 NSCLC, measured growth is 69.2% (inactive)

Let me check: `COc1ccc(NCc2cn(-c3ccc(C(=O)O)cc3)nc2-c2ccc(C(=O)O)cc2)cc1C(F)(F)F` , system HOP-62 NSCLC, measured growth is 96.6% (inactive)

Let me check: `c1ccc(-c2n[nH]c(-c3ccccn3)n2)nc1` , system HOP-62 NSCLC, measured growth is 104% (inactive)

Let me check: `CC[C@@H]1NC(=O)[C@@H]2CCCCN2C(=O)[C@@H]2CCCN2C(=O)[C@@H](NC(=O)[C@H](Cc2cc(F)cc(F)c2)NC(=O)Nc2ccc(C3CC3)cc2F)[C@H](C)OC(=O)[C@@H]2C[C@@H](C)CN2C1=O` , system HOP-62 NSCLC, measured growth is 26.7% (inactive)

Let me check: COc1ccccc1S(=O)Nc1ccccc1 (centres undefined) , system HOP-62 NSCLC, measured growth is 124% (inactive)

Let me check: `C=CCCCCOc1ccccc1-c1cnc(OCCCCC=C)n1C` , system HOP-62 NSCLC, measured growth is 77.2% (inactive)

Let me check: `O=C1NC(=O)c2cc([N+](=O)[O-])cc3cccc1c23` , system HOP-62 NSCLC, measured growth is 121% (inactive)

Let me check: `NC(=S)Cc1ccccc1` , system HOP-62 NSCLC, measured growth is 98.1% (inactive)

Let me check: `O=C1/C(=C\c2cccn2Cc2ccccc2)c2ccccc2N1c1c(Cl)cccc1Cl` , system HOP-62 NSCLC, measured growth is 77.2% (inactive)

Let me check: `c1ccc2c(c1)CN(CCCN1CCOCC1)C2` , system HOP-62 NSCLC, measured growth is 103% (inactive)

Let me check: `CSc1nc2sc3cc(Cl)c(Cl)cc3n2c(=N)c1C#N` , system HOP-62 NSCLC, measured growth is 94.7% (inactive)

Let me check: `CS(=O)(=O)c1cccnn1` , system HOP-62 NSCLC, measured growth is 103% (inactive)

Let me check: `Nc1cccc2c1C(=O)c1cccc(NC(=O)c3ccccc3)c1C2=O` , system HOP-62 NSCLC, measured growth is 38.7% (inactive)

Let me check: `Cc1cc(C)c(S(=O)(=O)/N=c2/n(-c3ccccc3)nc3n2CCN3C2=NCCN2)c(C)c1` , system HOP-62 NSCLC, measured growth is 86.8% (inactive)

Let me check: `C=C(C)[C@@H]1CC[C@]2(COC(=O)c3ccccc3C(=O)O)CC[C@]3(C)[C@H](CC[C@@H]4[C@@]5(C)CC[C@H](OC(=O)c6ccccc6C(=O)O)C(C)(C)[C@@H]5CC[C@]43C)[C@@H]12` , system HOP-62 NSCLC, measured growth is 3.17% [100 µM] (active)

Let me check: `Cc1ccc(-n2nc3n(/c2=N\C(=O)NS(=O)(=O)c2ccc(C)cc2)CCN3C2=NCCN2)cc1` , system HOP-62 NSCLC, measured growth is 93.4% (inactive)

Let me check: `CC1(C)CC[C@]2(C(=O)O)CC[C@]3(C)C(=CC[C@@H]4[C@@]5(C)C/C(=C/c6cccnc6)[C@H](O)C(C)(C)[C@@H]5CC[C@]43C)[C@@H]2C1` , system HOP-62 NSCLC, measured growth is -2.51% [100 µM] (active)

Let me check: `Nc1nc(Cl)c2ncn(Cc3cc4c(cc3I)OCO4)c2n1` , system HOP-62 NSCLC, measured growth is 36.1% (inactive)

Let me check: N#Cc1c(Cl)nc(SCC2CO2)nc1-c1ccccc1 (centres undefined) , system HOP-62 NSCLC, measured growth is 92.8% (inactive)

Let me check: `O=C(CSc1nc2ccc([N+](=O)[O-])cc2[nH]1)Nc1ccc(F)c(Cl)c1` , system HOP-62 NSCLC, measured growth is 35% (inactive)

Let me check: `c1cc2ccc3cc2cc1CNCCN1CCNCc2ccc4ccc(cc4c2)CNCCN(CCNC3)CCNCc2ccc3ccc(cc3c2)CNCC1` , system HOP-62 NSCLC, measured growth is 60.3% (inactive)

Let me check: `COc1ccc(-c2cc(-c3ccc(OC)c(OC)c3)nc(SCCCCCC(=O)NO)n2)cc1` , system HOP-62 NSCLC, measured growth is 60.3% (inactive)

Let me check: CCOC(=O)c1nn(C2CCCCO2)c2ccc(NS(=O)(=O)c3ccc(C)cc3)cc12 (centres undefined) , system HOP-62 NSCLC, measured growth is 101% (inactive)

Let me check: CC1Cc2c(Cl)ncnc2N(C)c2ccccc21 (centres undefined) , system HOP-62 NSCLC, measured growth is 22.8% (inactive)

Let me check: `CCN(CC)c1ccc(/C=C/c2ccc3cc(C)ccc3[n+]2CC)cc1` , system HOP-62 NSCLC, measured growth is 4.01% (active)

Let me check: `CC[C@]12C=CCN3CC[C@@]4(c5ccc(OC)cc5N(C)[C@H]4[C@@](O)(C(=O)OC)[C@@H]1OC(=O)CCC(=O)O[C@H]1CC[C@H]4[C@@H]5CCC6=CC(=O)CC[C@@H]6[C@H]5CC[C@]14C)[C@@H]32` , system HOP-62 NSCLC, measured growth is 21.9% [100 µM] (inactive)

Let me check: `O=[N+]([O-])c1cccc(/C=C/c2ccc3ccccc3n2)c1` , system HOP-62 NSCLC, measured growth is 55.5% (inactive)

Let me check: `c1coc2occoc=2o1` , system HOP-62 NSCLC, measured growth is 94.7% (inactive)

Let me check: `Cc1nn(-c2ccccc2)c(N2CCOCC2)c1-c1nc2ccc([N+](=O)[O-])cc2[nH]1` , system HOP-62 NSCLC, measured growth is 128% (inactive)

Let me check: `O=C1/C(=C/c2ccc(OCc3ccccc3)cc2)Oc2cc(OCCN3CCCCC3)ccc21` , system HOP-62 NSCLC, measured growth is 95.7% (inactive)

Let me check: N#CC1C(=O)NC(c2ccccc2[N+](=O)[O-])c2sc3c(F)cccc3c21 (centres undefined) , system HOP-62 NSCLC, measured growth is 33.8% (inactive)

Let me check: CC1Cc2c(Cl)ncnc2N(C)c2ccc(Cl)cc21 (centres undefined) , system HOP-62 NSCLC, measured growth is 13.6% (inactive)

Let me check: O=C1Cc2c(sc3c(F)cccc23)C(c2ccccc2[N+](=O)[O-])N1 (centres undefined) , system HOP-62 NSCLC, measured growth is 91.5% (inactive)

Let me check: `CCCCCCNC(=O)Nc1ncnc2c1ncn2-c1ccccc1` , system HOP-62 NSCLC, measured growth is 77.6% (inactive)

Let me check: `COc1ccc2nc3ccccc3c(NCCNCCO)c2c1` , system HOP-62 NSCLC, measured growth is -6.96% (active)

Let me check: `CCCN1CC(c2ccc(OC)c(OC)c2)=C(c2cn(C(=O)OCC)c3ccccc23)C1=O` , system HOP-62 NSCLC, measured growth is 45.9% (inactive)

Let me check: `CCc1cccc(Cl)c1` , system HOP-62 NSCLC, measured growth is 103% (inactive)

Let me check: `Cc1ccc(-c2cc(-c3ccc(C)cc3)nc(N3CCN(CCNc4ccnc5cc(Cl)ccc45)CC3)n2)cc1` , system HOP-62 NSCLC, measured growth is 41.6% (inactive)
